SYSTEM: MDM2 (Homo sapiens)
ASSAY METHOD TEXT: Competitive fluorescence polarization assay for MDM2
Type: binding
CONDITION PARAMETERS: competitive FP assay, MDM2; read-out: Ki (MDM2)
pKi: −log10 of the molar value. Where a SMILES comes first, the peptide text is derived from it. Bridges are numbered along the chain shown (N, C = ends). [ ]: non-standard residue; d: D form. R8 = C=CCCCCCC[C@@](C)(N)C(=O)O; Cba = N[C@@H](CC1CCC1)C(=O)O; S5 = C=CCCC[C@](C)(N)C(=O)O; Nle = CCCC[C@H](N)C(=O)O
MEASUREMENT TYPE: pKi

Q: Annotate the molecule CC(=O)N[C@@H](CC(C)C)C(=O)N[C@H](C(=O)N[C@@H](Cc1ccccc1)C(=O)N[C@]1(C)CCCCCCC=CCCC[C@@](C)(C(=O)N[C@@H](C)C(=O)N[C@@H](C)C(=O)NC(C)(C)C(=O)N[C@H](C(N)=O)C(C)C)NC(=O)[C@H](CC(C)C)NC(=O)[C@H](CCC(N)=O)NC(=O)[C@H](C)NC(=O)[C@H](Cc2c[nH]c3ccccc23)NC(=O)[C@H](Cc2ccc(O)cc2)NC(=O)[C@H](C)NC1=O)[C@@H](C)O (single isomer, unassigned) [compound 24] with its measured pKi.
Result: > 8.00

Q: Report pKi for CCCC[C@H](NC(=O)[C@H](Cc1c[nH]c2ccccc12)NC(=O)[C@H](C)NC(=O)[C@]1(C)CCCC=CCCCCCC[C@@](C)(NC(=O)[C@H](Cc2ccccc2)NC(=O)[C@@H](NC(=O)[C@H](CC(C)C)NC(C)=O)[C@@H](C)O)C(=O)N[C@@H](CCC(=O)O)C(=O)N[C@@H](Cc2ccc(O)cc2)C(=O)N[C@@H](Cc2c[nH]c3ccccc23)C(=O)N[C@@H](C)C(=O)N[C@@H](CCC(N)=O)C(=O)N[C@@H](CC2CCC2)C(=O)N1)C(=O)N[C@H](C)C(N)=O [compound 271] (Ac-LTF[R8]EYWAQ[Cba][S5]AW[Nle][dA]-NH2; staple 4-11)
Result: > 8.00

###

SYSTEM: MDM2 (Homo sapiens, UniProt Q00987)
Sequence (Q00987 1-125): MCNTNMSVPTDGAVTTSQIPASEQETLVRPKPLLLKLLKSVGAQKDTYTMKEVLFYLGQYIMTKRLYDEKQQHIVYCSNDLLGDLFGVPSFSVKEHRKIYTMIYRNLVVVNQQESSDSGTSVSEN
ASSAY METHOD TEXT: Competitive fluorescence polarization assay for MDM2
Assay type: binding
CONDITION PARAMETERS: competitive FP assay, MDM2; read-out: Ki (MDM2)
Where a SMILES comes first, the peptide text is derived from it. Bridges are numbered along the chain shown (N, C = ends). [ ]: non-standard residue; d: D form. Trp(6-Cl) = N[C@@H](Cc1c[nH]c2cc(Cl)ccc12)C(=O)O; Phe(4-COOH) = N[C@@H](Cc1ccc(C(=O)O)cc1)C(=O)O; R8 = C=CCCCCCC[C@@](C)(N)C(=O)O; Cba = N[C@@H](CC1CCC1)C(=O)O; S5 = C=CCCC[C@](C)(N)C(=O)O; Nle = CCCC[C@H](N)C(=O)O
MEASUREMENT TYPE: Ki

Q: Input CC(=O)N[C@@H](CC(C)C)C(=O)N[C@H](C(=O)N[C@@H](Cc1ccccc1)C(=O)N[C@]1(C)CCCCCCC=CCCC[C@@](C)(C(=O)N[C@@H](C)C(=O)N[C@@H](C)C(=O)N[C@@H](C)C(=O)N[C@@H](C)C(=O)N[C@@H](C)C(=O)N[C@H](C)C(N)=O)NC(=O)[C@H](CC(C)C)NC(=O)[C@H](C)NC(=O)[C@H](C)NC(=O)[C@H](Cc2c[nH]c3ccccc23)NC(=O)[C@H](Cc2ccc(O)cc2)NC(=O)[C@H](C)NC1=O)[C@@H](C)O (single isomer, unassigned) , output reported Ki.
Result: 10 to 100 nM

Q: State, in one line, measured Ki of CSCC[C@H](NC(=O)[C@H](C)NC(=O)[C@H](CO)NC(=O)[C@]1(C)CCCC=CCCCCCC[C@@](C)(NC(=O)[C@H](Cc2ccccc2)NC(=O)[C@@H](NC(=O)[C@H](CC(C)C)NC(C)=O)[C@@H](C)O)C(=O)N[C@@H](C)C(=O)N[C@@H](Cc2ccc(O)cc2)C(=O)N[C@@H](Cc2c[nH]c3ccccc23)C(=O)N[C@@H](C)C(=O)N[C@@H](CCC(N)=O)C(=O)N[C@@H](CC(C)C)C(=O)N1)C(N)=O [compound 5] (Ac-LTF[R8]AYWAQL[S5]SAM-NH2; staple 4-11)
Result: < 10 nM

Q: Note down Ki recorded for CCCC[C@H](NC(=O)[C@H](C)NC(=O)[C@H](C)NC(=O)[C@]1(C)CCCC=CCCCCCC[C@@](C)(NC(=O)[C@H](Cc2ccccc2)NC(=O)[C@H](C)NC(=O)[C@H](C)NC(=O)[C@H](C)NC(C)=O)C(=O)N[C@@H](CCC(=O)O)C(=O)N[C@@H](Cc2ccc(O)cc2)C(=O)N[C@@H](Cc2c[nH]c3ccccc23)C(=O)N[C@@H](C)C(=O)N[C@@H](CCC(N)=O)C(=O)N[C@@H](CC(C)C)C(=O)N1)C(=O)N[C@@H](C)C(N)=O [compound 372] (Ac-AAAF[R8]EYWAQL[S5]AA[Nle]A-NH2; staple 5-12)
Result: 10 to 100 nM

Q: Give the reported Ki for this molecule. CC(=O)N[C@@H](Cc1ccccc1)C(=O)N[C@]1(C)CCCCCCC=CCCC[C@@](C)(C(=O)N[C@@H](CCCNC(=N)N)C(=O)N[C@@H](CCCNC(=N)N)C(=O)N[C@@H](CC(=O)O)C(=O)N[C@@H](C)C(N)=O)NC(=O)[C@H](CC(C)C)NC(=O)[C@H](CCC(N)=O)NC(=O)[C@H](Cc2c[nH]cn2)NC(=O)[C@H](Cc2c[nH]c3ccccc23)NC(=O)[C@H](Cc2c[nH]cn2)NC(=O)[C@H](Cc2c[nH]cn2)NC1=O [compound 54] (Ac-F[R8]HHWHQL[S5]RRDA-NH2; staple 2-9)
Result: 10 to 100 nM

Q: Fill in reported Ki for this entry: CC[C@H](C)[C@H](NC(=O)[C@H](C)NC(=O)[C@H](C)NC(=O)[C@]1(C)CCCC=CCCCCCC[C@@](C)(NC(=O)[C@H](Cc2ccccc2)NC(=O)[C@@H](NC(=O)[C@H](CC(C)C)NC(C)=O)[C@@H](C)O)C(=O)N[C@@H](C)C(=O)N[C@@H](Cc2ccc(O)cc2)C(=O)N[C@@H](Cc2c[nH]c3cc(Cl)ccc23)C(=O)N[C@@H](C)C(=O)N[C@@H](CCC(N)=O)C(=O)N[C@@H](CC2CCC2)C(=O)N1)C(=O)N[C@H](C)C(N)=O [compound 266] (Ac-LTF[R8]AY[Trp(6-Cl)]AQ[Cba][S5]AAI[dA]-NH2; staple 4-11)
Result: < 10 nM

Q: Output Ki of CC(=O)N[C@@H](CC(C)C)C(=O)N[C@H](C(=O)N[C@@H](Cc1ccccc1)C(=O)N[C@]1(C)CCCCCCC=CCCC[C@@](C)(C(=O)N[C@@H](C)C(=O)N[C@@H](C)C(=O)N[C@@H](C)C(N)=O)NC(=O)[C@H](CC2CCC2)NC(=O)[C@H](CCC(N)=O)NC(=O)[C@H](C)NC(=O)[C@H](Cc2c[nH]c3ccccc23)NC(=O)[C@H](Cc2ccc(O)cc2)NC(=O)[C@H](CCC(=O)O)NC1=O)[C@@H](C)O (single isomer, unassigned)
Result: < 10 nM

Q: For "CCCC[C@H](NC(=O)[C@H](C)NC(=O)[C@H](C)NC(=O)[C@]1(C)CCC/C=C/CCCCCC[C@@](C)(NC(=O)[C@H](Cc2ccccc2)NC(=O)[C@@H](NC(=O)[C@H](CC(C)C)NC(C)=O)[C@@H](C)O)C(=O)N[C@@H](C)C(=O)N[C@@H](Cc2ccc(O)cc2)C(=O)N[C@@](C)(Cc2c[nH]c3ccccc23)C(=O)N[C@@H](C)C(=O)N[C@@H](CCC(N)=O)C(=O)N[C@@H](CC(C)C)C(=O)N1)C(=O)N[C@@H](C)C(N)=O" , write its Ki.
Result: 10 to 100 nM

Q: Determine its reported Ki: CCCC[C@H](NC(=O)[C@H](C)NC(=O)[C@H](CO)NC(=O)[C@]1(C)CCCC=CCCCCCC[C@@](C)(NC(=O)[C@H](Cc2ccccc2)NC(=O)[C@@H](NC(=O)[C@H](CC(C)C)NC(C)=O)[C@@H](C)O)C(=O)N[C@@H](CCC(=O)O)C(=O)N[C@@H](Cc2ccc(C(=O)O)cc2)C(=O)N[C@@H](Cc2c[nH]c3ccccc23)C(=O)N[C@@H](C)C(=O)N[C@@H](CCC(N)=O)C(=O)N[C@@H](CC2CCC2)C(=O)N1)C(=O)N[C@@H](C)C(N)=O [compound 244] (Ac-LTF[R8]E[Phe(4-COOH)]WAQ[Cba][S5]SA[Nle]A-NH2; staple 4-11)
Result: < 10 nM
